- assay.target: KRas-mediated phosphorylation of ERK in MKN1 cells (Homo sapiens, UniProt P01116)
- Construct: pERK HTRF read-out
- Sequence (P01116 1-188 isoform P01116-2): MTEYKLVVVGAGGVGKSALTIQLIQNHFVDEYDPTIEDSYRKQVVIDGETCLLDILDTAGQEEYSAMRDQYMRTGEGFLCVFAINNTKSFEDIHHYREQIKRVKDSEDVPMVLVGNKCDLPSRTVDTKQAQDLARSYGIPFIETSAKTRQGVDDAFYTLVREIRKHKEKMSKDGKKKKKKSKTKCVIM
- method.description: Inhibition of KRas-mediated phosphorylation of ERK (HTRF), MKN1 cells
- Format: cell-based
- recorded.conditions: MKN1 cells (KRas WT); HTRF pERK; 3 h incubation
readout.name: IC50 (nM)

# annotated cases, reported IC50 shown
{"molecule": "CCc1c(F)ccc2cc(O)cc(-c3ncc4c(N5CCC(C(=O)n6cccn6)CC5)nc(OC[C@@]56CCCN5C[C@H](F)C6)nc4c3F)c12 [Example 4]", "IC50, nM": 2040}
{"molecule": "CCc1c(F)ccc2cc(O)cc(-c3ncc4c(N5CCC(OC)(C(=O)n6ccc(C)n6)CC5)nc(OC[C@@]56CCCN5C[C@H](F)C6)nc4c3F)c12 [Example 88]", "IC50, nM": 8070}
{"molecule": "N#Cc1c(N)sc2c(F)ccc(-c3c(C(F)(F)F)cc4c(N5CCC(C(=O)Oc6ccccc6)CC5)nc(OC[C@@]56CCCN5C[C@H](F)C6)nc4c3F)c12 [Example 295]", "IC50, nM": 56}

[a] CCc1c(F)ccc2cc(O)cc(-c3ncc4c(N5CCC(C(=O)n6ccc(C)n6)CC5)nc(OC[C@@]56CCCN5C[C@H](F)C6)nc4c3F)c12 [Example 1]
[b] CN(CCNC(=O)n1nccn1)c1nc(OC[C@@]23CCCN2C[C@H](F)C3)nc2c(F)c(-c3ccc(F)c4sc(N)c(C#N)c34)c(Cl)cc12 [Example 213]
[c] CCc1c(F)ccc2cc(O)cc(-c3ncc4c(N5CCC(C(=O)N(C)C(C)=O)CC5)nc(OC[C@@]56CCCN5C[C@H](F)C6)nc4c3F)c12 [Example 155]
Please rank these molecules by IC50 in descending order. Arrange the labels as the request states and list them.
a, c, b
(a: 4000 nM, c: 671 nM, b: 387 nM)

----------
- assay.target: KRas WT (Homo sapiens, UniProt P01116)
- Construct: Biotinylated KRas (corresponding to amino acids 1-169, produced at Accelegan Inc.); biotin (biotinylated); purchased Accelegan Inc
- Sequence (P01116 1-169 isoform P01116-2): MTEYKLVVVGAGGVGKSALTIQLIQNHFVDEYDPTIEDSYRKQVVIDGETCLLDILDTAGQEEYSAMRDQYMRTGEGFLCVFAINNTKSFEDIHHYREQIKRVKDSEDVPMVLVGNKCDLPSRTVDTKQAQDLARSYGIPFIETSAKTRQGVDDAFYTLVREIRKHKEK
- method.description: KRas binding assay, TR-FRET displacement of Cy5 labelled tracer
- recorded.conditions: 60-minute incubation at room temperature, 1% DMSO, pH 7.5
readout.name: IC50 (nM)

# annotated cases, reported IC50 shown
{"compound": "CCc1c(F)ccc2cc(O)cc(-c3ncc4c(NCC56CC(C(=O)n7ccc(C)n7)(C5)C6)nc(OC[C@@]56CCCN5C[C@H](F)C6)nc4c3F)c12 [Example 92]", "assay.target": "KRas WT (Homo sapiens, UniProt P01116)", "readout.name": "IC50", "unit.info": "nM", "observed.measurement": 59}
{"compound": "N#Cc1c(N)sc2c(F)ccc(-c3c(Cl)cc4c(N5CCCC(C(=O)n6ccc(C7CC7)n6)CC5)nc(OC[C@@]56CCCN5C[C@H](F)C6)nc4c3F)c12 (some centres unmarked) [Example 189]", "assay.target": "KRas WT (Homo sapiens, UniProt P01116)", "readout.name": "IC50", "unit.info": "nM", "observed.measurement": 24}
{"compound": "CN(CCN(C)c1nc(OC[C@@]23CCCN2C[C@H](F)C3)nc2c(F)c(-c3ccc(F)c4sc(N)c(C#N)c34)c(Cl)cc12)C(=O)n1cncn1 [Example 232]", "assay.target": "KRas WT (Homo sapiens, UniProt P01116)", "readout.name": "IC50", "unit.info": "nM", "observed.measurement": 12}
{"compound": "CCc1c(F)ccc2cc(O)cc(-c3ncc4c(N5CCCCC(C(=O)N(C)C(C)=O)CC5)nc(OC[C@@]56CCCN5C[C@H](F)C6)nc4c3F)c12 (some centres unmarked) [Example 275]", "assay.target": "KRas WT (Homo sapiens, UniProt P01116)", "readout.name": "IC50", "unit.info": "nM", "observed.measurement": 47}
{"compound": "N#Cc1ccc(OC(=O)C2CCN(c3nc(OCC45CCCN4CCC5)nc4c(F)c(-c5cccc6cccc(F)c56)ncc34)CC2)cc1 [Example 29]", "assay.target": "KRas WT (Homo sapiens, UniProt P01116)", "readout.name": "IC50", "unit.info": "nM", "observed.measurement": 90500}
{"compound": "CCc1c(F)ccc2cc(O)cc(-c3ncc4c(N5CCN(C(=O)n6ccc(C)n6)C(C(F)(F)F)C5)nc(OC[C@@]56CCCN5C[C@H](F)C6)nc4c3F)c12 (some centres unmarked) [Example 127]", "assay.target": "KRas WT (Homo sapiens, UniProt P01116)", "readout.name": "IC50", "unit.info": "nM", "observed.measurement": 193}
{"compound": "Cc1ccn(C(=O)[C@@H]2[C@@H]3CCN(c4nc(OC[C@@]56CCCN5C[C@H](F)C6)nc5c(F)c(-c6ccc(F)c7sc(N)c(C#N)c67)c(Cl)cc45)C[C@@H]32)n1 [Example 179]", "assay.target": "KRas WT (Homo sapiens, UniProt P01116)", "readout.name": "IC50", "unit.info": "nM", "observed.measurement": 26}
{"compound": "CCc1c(F)ccc2cc(O)cc(-c3ncc4c(NC[C@H]5C[C@@H]5C(=O)n5ccc(C)n5)nc(OC[C@@]56CCCN5C[C@H](F)C6)nc4c3F)c12 [Example 159]", "assay.target": "KRas WT (Homo sapiens, UniProt P01116)", "readout.name": "IC50", "unit.info": "nM", "observed.measurement": 15}

[A] CN(CCNC(=O)n1nccn1)c1nc(OC[C@@]23CCCN2C[C@H](F)C3)nc2c(F)c(-c3ccc(F)c4sc(N)c(C#N)c34)c(Cl)cc12 [Example 213]
[B] C=CC1(C(=O)n2ccc(C)n2)CCN(c2nc(OC[C@@]34CCCN3C[C@H](F)C4)nc3c(F)c(-c4cc(O)cc5ccc(F)c(CC)c45)ncc23)C1 (some centres unmarked) [Example 107]
[C] CCc1c(F)ccc2cc(O)cc(-c3ncc4c(N5CCN(C(=O)n6ccc(C)n6)C6(CC6)C5)nc(OC[C@@]56CCCN5C[C@H](F)C6)nc4c3F)c12 (single isomer, unassigned) [Example 78]
Please rank these compounds by IC50 in descending order. Arrange the labels as the request states and list them.
B, C, A

[P] CCc1c(F)ccc2cc(O)cc(-c3ncc4c(N5CCC(C(=O)n6ccc(OC)n6)CC5)nc(OC[C@@]56CCCN5C[C@H](F)C6)nc4c3F)c12 [Example 61]
[Q] N#Cc1c(N)sc2c(F)ccc(-c3c(Cl)cc4c(N5CCC[C@H](C(=O)n6ccc(C7CC7)n6)CC5)nc(OC[C@@]56CCCN5C[C@H](F)C6)nc4c3F)c12 [Example 216]
Lab note: check whether P or Q has the lower measured IC50. // return label of chosen record
Q
(Q: 22 nM, P: 136 nM)

----------
- assay.target: KRas-mediated phosphorylation of ERK in H358 cells (Homo sapiens, UniProt P01116, G12C)
- Construct: pERK HTRF read-out
- Sequence (P01116 1-188 isoform P01116-2 G12C): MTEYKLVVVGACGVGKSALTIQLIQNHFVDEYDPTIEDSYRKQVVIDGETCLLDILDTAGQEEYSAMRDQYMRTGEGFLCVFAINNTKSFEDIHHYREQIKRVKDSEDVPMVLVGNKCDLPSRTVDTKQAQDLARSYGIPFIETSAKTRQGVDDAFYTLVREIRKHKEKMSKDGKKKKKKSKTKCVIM
- method.description: Inhibition of KRas-mediated phosphorylation of ERK (HTRF), H358 cells
- Type: cell-based
- recorded.conditions: HTRF pERK, 3 h incubation
readout.name: IC50 (nM)

{"molecule": "CCc1c(F)ccc2cc(O)cc(-c3ncc4c(N5CCC(C(=O)n6ccc(C)n6)CC5)nc(OC[C@@]56CCCN5C[C@H](F)C6)nc4c3F)c12", "readout.name": "IC50", "observed.measurement": 3720}
{"molecule": "CCc1c(F)ccc2cc(O)cc(-c3ncc4c(N5CCC(C=O)CC5)nc(OC[C@@]56CCCN5C[C@H](F)C6)nc4c3F)c12", "readout.name": "IC50", "observed.measurement": 22}

[a] CC(=O)N(C)C(=O)CCCN(C)c1nc(OC[C@@]23CCCN2C[C@H](F)C3)nc2c(F)c(-c3ccc(F)c4sc(N)c(C#N)c34)c(Cl)cc12 (atropisomer, axis not shown; (aS)) [Example 260]
[b] CN(C(=O)CCCN(C)c1nc(OC[C@@]23CCCN2C[C@H](F)C3)nc2c(F)c(-c3ccc(F)c4sc(N)c(C#N)c34)c(Cl)cc12)C(=O)c1cnn(C)c1
[c] CCc1c(F)ccc2cc(O)cc(-c3ncc4c(N5CCN(C(=O)n6ccc(C)n6)C(C(F)(F)F)C5)nc(OC[C@@]56CCCN5C[C@H](F)C6)nc4c3F)c12 (some centres unmarked)
[d] CCc1c(F)ccc2cc(O)cc(N3CCc4c(nc(OC[C@@]56CCCN5C[C@H](F)C6)nc4N4CCCC(C(=O)n5cccn5)CC4)C3)c12 (some centres unmarked)
[e] COc1cccc(OC(=O)C2CCN(c3nc(OC[C@@]45CCCN4C[C@H](F)C5)nc4c(F)c(-c5ccc(F)c6sc(N)c(C#N)c56)c(Cl)cc34)CC2)c1
Rank the items in ascending order with respect to IC50. Arrange the labels as the request states and list them.
e, a, b, c, d

These data points were gathered from patent US20260356856A1.
